# Tested on: rodent lifetime carcinogenesis bioassay, tumor incidence TD50
# TEST_DETAILS: carcinogenic potency in animals, long-term in vivo studies, CPDB compilation (AID 1745844)
# ASSAY_CONTEXT: rat; strain Fischer 344; females; in feed; site: uterus; lesion: endometrial stromal polyp; dosed 78 weeks; study length 104 weeks
Activity calls are given as the source filed them. How the calls were made is not given here.
PROPERTY_NAME: TD50

Fill in: TD50 of Nc1ccc(Cl)c(N)c1 is ___
175 mg/kg/day (inactive)

----------
# Test system: rodent lifetime carcinogenesis bioassay, tumor incidence TD50
# TEST_DETAILS: carcinogenic potency in animals, long-term in vivo studies, CPDB compilation (AID 1745844)
# ASSAY_CONTEXT: rat; strain MRC; males; by gavage; site: prostate; lesion: squamous-cell carcinoma; dosed 72 weeks; study length 80 weeks
PROPERTY_NAME: TD50 (mg/kg/day)
Numbers only, in mg/kg/day.

What measured TD50 goes with CC(=O)CN(CC(C)=O)N=O ?
2.21
